# Tested on: NCI-H510 multicellular tumor spheroid growth, % test/control
# test method notes: Anticancer human tumor NCI-H510 cell line growth inhibition [Asc];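 note: spheroids exposed to agents for 7 days; 100% = DMSO vehicle control wells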
# condition details: second compound 0.316 µM; first compound 0.00316 µM; hits give low values
# From the text: Multicellular complex tumor spheroid response to apoptosis pathway targeting inhibitors Alrizomadlin, Pelcitoclax, and Dasminapant in combination with a variety of drugs and investigational agents in selected tumor cell lines […] Compounds. […] If the clinical Cmax for an agent had not been determined, the highest concentration tested was 10 microM. […]
measurement name: viability, T/C (%)
Value expressed in %; do not type the unit.

# get_value(readout='viability, T/C', item= CCN1CCN(Cc2ccc(Nc3ncc(F)c(-c4cc(F)c5nc(C)n(C(C)C)c5c4)n3)nc2)CC1 + CNC(C)C(=O)NC1CN(S(=O)(=O)c2cccc(S(=O)(=O)N3CCC4CCC(C(=O)NC(c5ccccc5)c5ccccc5)N4C(=O)C(NC(=O)C(C)NC)C3)c2)CCC2CCC(C(=O)NC(c3ccccc3)c3ccccc3)N2C1=O )
114

# get_value(readout='viability, T/C', item= CCN1CCN(Cc2ccc(Nc3ncc(F)c(-c4cc(F)c5nc(C)n(C(C)C)c5c4)n3)nc2)CC1 + Cc1c(S(C)(=O)=O)c(-c2cc(F)cc(N3CCN(c4ccc(NS(=O)(=O)c5ccc(NC(CCN6CCC(C(=O)OCCCP(=O)(O)O)CC6)CSc6ccccc6)c(S(=O)(=O)C(F)(F)F)c5)cc4)CC3)c2)c(-c2ccc(Cl)cc2)n1C(C)C )
104

# get_value(readout='viability, T/C', item= Cn1ncnc1[C@H]1c2n[nH]c(=O)c3cc(F)cc(c23)N[C@@H]1c1ccc(F)cc1 + Cc1c(S(C)(=O)=O)c(-c2cc(F)cc(N3CCN(c4ccc(NS(=O)(=O)c5ccc(NC(CCN6CCC(C(=O)OCCCP(=O)(O)O)CC6)CSc6ccccc6)c(S(=O)(=O)C(F)(F)F)c5)cc4)CC3)c2)c(-c2ccc(Cl)cc2)n1C(C)C )
101

# get_value(readout='viability, T/C', item= NC1CCC(NC2CC2c2ccccc2)CC1 (stereo unspecified) + CNC(C)C(=O)NC1CN(S(=O)(=O)c2cccc(S(=O)(=O)N3CCC4CCC(C(=O)NC(c5ccccc5)c5ccccc5)N4C(=O)C(NC(=O)C(C)NC)C3)c2)CCC2CCC(C(=O)NC(c3ccccc3)c3ccccc3)N2C1=O )
91

# get_value(readout='viability, T/C', item= O=C(c1ccc(F)c(F)c1Nc1ccc(I)cc1F)N1CC(O)([C@@H]2CCCCN2)C1 + Cc1c(S(C)(=O)=O)c(-c2cc(F)cc(N3CCN(c4ccc(NS(=O)(=O)c5ccc(NC(CCN6CCC(C(=O)OCCCP(=O)(O)O)CC6)CSc6ccccc6)c(S(=O)(=O)C(F)(F)F)c5)cc4)CC3)c2)c(-c2ccc(Cl)cc2)n1C(C)C )
124

# get_value(readout='viability, T/C', item= CNC(C)C(=O)NC1CN(S(=O)(=O)c2cccc(S(=O)(=O)N3CCC4CCC(C(=O)NC(c5ccccc5)c5ccccc5)N4C(=O)C(NC(=O)C(C)NC)C3)c2)CCC2CCC(C(=O)NC(c3ccccc3)c3ccccc3)N2C1=O (stereo unspecified) + Cc1c(S(C)(=O)=O)c(-c2cc(F)cc(N3CCN(c4ccc(NS(=O)(=O)c5ccc(NC(CCN6CCC(C(=O)OCCCP(=O)(O)O)CC6)CSc6ccccc6)c(S(=O)(=O)C(F)(F)F)c5)cc4)CC3)c2)c(-c2ccc(Cl)cc2)n1C(C)C )
93.6

====

# Tested on: NCI-H510 multicellular tumor spheroid growth, % test/control
# test method notes: Anticancer human tumor NCI-H510 cell line growth inhibition [Asc];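 note: spheroids exposed to agents for 7 days; 100% = DMSO vehicle control wells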
# condition details: second compound 0.316 µM; first compound 0.00316 µM; hits give low values
measurement name: viability, T/C (%)
Value expressed in %; do not type the unit.

# get_value(readout='viability, T/C', item= O=C(c1ccc(F)c(F)c1Nc1ccc(I)cc1F)N1CC(O)([C@@H]2CCCCN2)C1 + CNC(C)C(=O)NC1CN(S(=O)(=O)c2cccc(S(=O)(=O)N3CCC4CCC(C(=O)NC(c5ccccc5)c5ccccc5)N4C(=O)C(NC(=O)C(C)NC)C3)c2)CCC2CCC(C(=O)NC(c3ccccc3)c3ccccc3)N2C1=O )
102

# get_value(readout='viability, T/C', item= COc1c(OCCCN2CCOCC2)ccc2c3n(c(=NC(=O)c4cnc(N)nc4)nc12)CCN3 + Cc1c(S(C)(=O)=O)c(-c2cc(F)cc(N3CCN(c4ccc(NS(=O)(=O)c5ccc(NC(CCN6CCC(C(=O)OCCCP(=O)(O)O)CC6)CSc6ccccc6)c(S(=O)(=O)C(F)(F)F)c5)cc4)CC3)c2)c(-c2ccc(Cl)cc2)n1C(C)C )
102

# get_value(readout='viability, T/C', item= COc1c(OCCCN2CCOCC2)ccc2c3n(c(=NC(=O)c4cnc(N)nc4)nc12)CCN3 + CNC(C)C(=O)NC1CN(S(=O)(=O)c2cccc(S(=O)(=O)N3CCC4CCC(C(=O)NC(c5ccccc5)c5ccccc5)N4C(=O)C(NC(=O)C(C)NC)C3)c2)CCC2CCC(C(=O)NC(c3ccccc3)c3ccccc3)N2C1=O )
115

# get_value(readout='viability, T/C', item= Cn1ncnc1[C@H]1c2n[nH]c(=O)c3cc(F)cc(c23)N[C@@H]1c1ccc(F)cc1 + CNC(C)C(=O)NC1CN(S(=O)(=O)c2cccc(S(=O)(=O)N3CCC4CCC(C(=O)NC(c5ccccc5)c5ccccc5)N4C(=O)C(NC(=O)C(C)NC)C3)c2)CCC2CCC(C(=O)NC(c3ccccc3)c3ccccc3)N2C1=O )
96.6

# get_value(readout='viability, T/C', item= NC1CCC(NC2CC2c2ccccc2)CC1 (stereo not given) + Cc1c(S(C)(=O)=O)c(-c2cc(F)cc(N3CCN(c4ccc(NS(=O)(=O)c5ccc(NC(CCN6CCC(C(=O)OCCCP(=O)(O)O)CC6)CSc6ccccc6)c(S(=O)(=O)C(F)(F)F)c5)cc4)CC3)c2)c(-c2ccc(Cl)cc2)n1C(C)C )
76.9

====

# System: NCI-H510 multicellular tumor spheroid growth, % test/control
# test method notes: Anticancer human tumor NCI-H510 cell line growth inhibition [Asc];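 note: spheroids exposed to agents for 7 days; 100% = DMSO vehicle control wells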
# condition details: second compound 3 µM; first compound 1 µM; hits give low values
Answer each item with its documented viability, T/C.
Value expressed in %; do not type the unit.

Field: viability, T/C (NCI-H510 multicellular tumor spheroid growth, % test/control). Entry: CCN1CCN(Cc2ccc(Nc3ncc(F)c(-c4cc(F)c5nc(C)n(C(C)C)c5c4)n3)nc2)CC1 + CCN1C(C(=O)NC23CCC(C(=O)O)(CC2)CC3)C(c2cccc(Cl)c2F)C2(C(=O)Nc3cc(Cl)ccc32)C12CCCCC2
83.1

Field: viability, T/C (NCI-H510 multicellular tumor spheroid growth, % test/control). Entry: O=C(c1ccc(F)c(F)c1Nc1ccc(I)cc1F)N1CC(O)([C@@H]2CCCCN2)C1 + CCN1C(C(=O)NC23CCC(C(=O)O)(CC2)CC3)C(c2cccc(Cl)c2F)C2(C(=O)Nc3cc(Cl)ccc32)C12CCCCC2
127

Field: viability, T/C (NCI-H510 multicellular tumor spheroid growth, % test/control). Entry: C=C(F)C(=O)N1CCN(c2nc(OCC3CCCN3C)nc3c2CCN(c2cccc4cccc(Cl)c24)C3)CC1CC#N (stereo not drawn) + CCN1C(C(=O)NC23CCC(C(=O)O)(CC2)CC3)C(c2cccc(Cl)c2F)C2(C(=O)Nc3cc(Cl)ccc32)C12CCCCC2
52.5

Field: viability, T/C (NCI-H510 multicellular tumor spheroid growth, % test/control). Entry: COc1c(OCCCN2CCOCC2)ccc2c3n(c(=NC(=O)c4cnc(N)nc4)nc12)CCN3 + CCN1C(C(=O)NC23CCC(C(=O)O)(CC2)CC3)C(c2cccc(Cl)c2F)C2(C(=O)Nc3cc(Cl)ccc32)C12CCCCC2
83.3

Field: viability, T/C (NCI-H510 multicellular tumor spheroid growth, % test/control). Entry: CNC(C)C(=O)NC1CN(S(=O)(=O)c2cccc(S(=O)(=O)N3CCC4CCC(C(=O)NC(c5ccccc5)c5ccccc5)N4C(=O)C(NC(=O)C(C)NC)C3)c2)CCC2CCC(C(=O)NC(c3ccccc3)c3ccccc3)N2C1=O (stereo not drawn) + CCN1C(C(=O)NC23CCC(C(=O)O)(CC2)CC3)C(c2cccc(Cl)c2F)C2(C(=O)Nc3cc(Cl)ccc32)C12CCCCC2
110

Field: viability, T/C (NCI-H510 multicellular tumor spheroid growth, % test/control). Entry: C=CC(=O)N1CCN(c2nc(=O)n(-c3c(C)ccnc3C(C)C)c3nc(-c4c(O)cccc4F)c(F)cc23)C(C)C1 (stereo not drawn) + CCN1C(C(=O)NC23CCC(C(=O)O)(CC2)CC3)C(c2cccc(Cl)c2F)C2(C(=O)Nc3cc(Cl)ccc32)C12CCCCC2
101

Field: viability, T/C (NCI-H510 multicellular tumor spheroid growth, % test/control). Entry: C#Cc1c(F)ccc2cc(O)cc(-c3ncc4c(N5CC6CCC(C5)N6)nc(OCC56CCCN5CC(F)C6)nc4c3F)c12 (stereo not drawn) + CCN1C(C(=O)NC23CCC(C(=O)O)(CC2)CC3)C(c2cccc(Cl)c2F)C2(C(=O)Nc3cc(Cl)ccc32)C12CCCCC2
99.9

Field: viability, T/C (NCI-H510 multicellular tumor spheroid growth, % test/control). Entry: O=C(c1cc(Cc2n[nH]c(=O)c3ccccc23)ccc1F)N1CCN(C(=O)C2CC2)CC1 + CCN1C(C(=O)NC23CCC(C(=O)O)(CC2)CC3)C(c2cccc(Cl)c2F)C2(C(=O)Nc3cc(Cl)ccc32)C12CCCCC2
93.3
